assay procedure: reversal of MRP1-mediated doxorubicin resistance, pilot screen, H69AR cells, doxorubicin co-treatment (AID 601)
condition description: H69AR cells + 2 uM doxorubicin, CellTiter-Glo, 72 h; measured here: viability with 2 uM doxorubicin; at 10 µM; stronger effect = lower value
Below: a set of entries, each annotated with reported viability.
Your answer should be a plain number; it is taken to be in %.

Sample answers from the record:
compound | measured quantity | reported value
CSc1nsc(SCC(=O)N2CCc3ccccc32)n1 | viability | 92.2
COc1ccc(N(CC(=O)Nc2ccc(F)c(Cl)c2)S(=O)(=O)c2c(C)noc2C)cc1 | viability | 89.3
CCOc1cc(NC(=O)c2ccccn2)c(OCC)cc1NC(=O)CC(C)C | viability | 95.2
COc1cc2c(=O)nc3n(c2cc1OC)C(c1ccccc1)N=C(N)N3 (stereo not given) | viability | 99.4

Ask | Tell me the measured viability of CCOC(=O)C1CCCn2c1nc1sc3c(c1c2=O)CCCC3 (stereo not given) , please.
Reply | 98.3

Ask | Tell me the measured viability of "Cc1cccc(NC(=O)c2ccc3ccccc3n2)n1" , please.
Reply | 94.3

Ask | Tell me the measured viability of "OC1(c2cccc(C(F)(F)F)c2)CCNCC1" , please.
Reply | 86.2

Ask | Tell me the measured viability of "Brc1c(NC2=NCCN2)ccc2nccnc12" , please.
Reply | 102
